tested on: OVCAR-3; test: Cytotoxicity against ovarian OVCAR-3 cancer cell cultures.; type: functional; details: Homo sapiens
// assign rule met if GI50 falls strictly below 20 µM, else rule not met (ties count as rule not met)

[ask] Criterion: GI50 strictly below 20 µM. Is it met by C[C@H]1CCC/C=C/[C@@H]2C[C@H](O)C[C@H]2[C@H](O)[C@H](SCCO)CC(=O)O1 ?
[reply] rule not met

[ask] Criterion: GI50 strictly below 20 µM. Is it met by C[C@H]1CCC/C=C/[C@@H]2C[C@H](O)C[C@H]2[C@H](O)[C@H]([S+]([O-])CC(N)C(=O)O)CC(=O)O1 (some centres undefined) ?
[reply] rule met

[ask] Criterion: GI50 strictly below 20 µM. Is it met by C[C@H]1CCC/C=C/[C@@H]2C[C@H](O)C[C@H]2[C@H](O)[C@H]([S+]([O-])CCO)CC(=O)O1 (some centres undefined) ?
[reply] rule met

[ask] Criterion: GI50 strictly below 20 µM. Is it met by C[C@H]1CCC/C=C/[C@@H]2C[C@H](OC(=O)CCCC(=O)O)C[C@H]2[C@H](OC(=O)CCCC(=O)O)/C=C/C(=O)O1 ?
[reply] rule not met

[ask] Criterion: GI50 strictly below 20 µM. Is it met by COC(=O)CS[C@@H]1CC(=O)O[C@@H](C)CCC/C=C/[C@@H]2C[C@H](O)C[C@H]2[C@@H]1O ?
[reply] rule not met

[ask] Criterion: GI50 strictly below 20 µM. Is it met by COc1ccc(S[C@@H]2CC(=O)O[C@@H](C)CCC/C=C/[C@@H]3C[C@H](O)C[C@H]3[C@@H]2O)cc1 ?
[reply] rule not met

[ask] Criterion: GI50 strictly below 20 µM. Is it met by C[C@H]1CCC/C=C/[C@@H]2C[C@H](O)C[C@H]2[C@H](O)[C@H](Sc2ccc(O)cc2)CC(=O)O1 ?
[reply] rule met

[ask] Criterion: GI50 strictly below 20 µM. Is it met by C[C@H]1CCC/C=C/[C@@H]2C[C@H](O)C[C@H]2[C@H](O)[C@H]([S+]([O-])c2ccc(O)cc2)CC(=O)O1 (some centres undefined) ?
[reply] rule met

[ask] Criterion: GI50 strictly below 20 µM. Is it met by C[C@H]1CCC/C=C/[C@@H]2C[C@H](O)C[C@H]2[C@H](O)[C@H](SCC(O)CO)CC(=O)O1 (some centres undefined) ?
[reply] rule not met

[ask] Criterion: GI50 strictly below 20 µM. Is it met by C[C@H]1CCC/C=C/[C@@H]2C[C@H](OC(=O)CCC(=O)O)C[C@H]2[C@H](O)/C=C/C(=O)O1 ?
[reply] rule met

[ask] Criterion: GI50 strictly below 20 µM. Is it met by C[C@H]1CCC/C=C/[C@@H]2C[C@H](O)C[C@H]2[C@H](O)[C@H](SCCN(C)C)CC(=O)O1 ?
[reply] rule met

[ask] Criterion: GI50 strictly below 20 µM. Is it met by C[C@H]1CCC/C=C/[C@@H]2C[C@H](O)C[C@H]2[C@H](O)[C@H]([S+]([O-])CCN)CC(=O)O1 (some centres undefined) ?
[reply] rule met

[ask] Criterion: GI50 strictly below 20 µM. Is it met by COC(=O)CS(=O)(=O)[C@@H]1CC(=O)O[C@@H](C)CCC/C=C/[C@@H]2C[C@H](O)C[C@H]2[C@@H]1O ?
[reply] rule met
